# Test system: SK-MEL-28
# assay-notes: NCI tumour cell line growth inhibition, 48 h
Activity calls are given as the source filed them. Cut-off read from the data, not from the text of the source: active = GI50 up to about 1.1 µM and inactive = higher.
property-name: GI50

Check out these entries, answers already filled in.
CN1C(=O)C(C(=O)Nc2ccccn2)C2C[C@@]1(C)Oc1ccccc12 (some centres not stated) : > 100 µM (inactive)
CC(C)(C)OC(=O)NCCCC(=O)NC1(c2cc3ccccc3s2)CCCCC1 : 14.1 µM (inactive)
COC(=O)c1ccccc1N(C(=O)c1ccccc1)c1ccccc1C : > 100 µM (inactive)

Prompt: Entry NCC1OC(OC2C(N)CC(N)C(O)C2OC2OC(CO)C(O)C2O)C(N)C(O)C1O (configuration not stated) , system SK-MEL-28: what GI50 was measured?
Completion: > 100 µM (inactive)

Prompt: Any idea what GI50 came out for CC[C@]1(O)C(=O)OCc2c1cc1n(c2=O)Cc2cc3c(N)cccc3nc2-1 on SK-MEL-28?
Completion: > 100 µM (inactive)
